- System: vancomycin-resistant Enterococcus (VRE)
- assay-procedure: agar dilution method, inhibitory effect on VRE
- Assay type: cell-based
- condition-set: Enterococcus, read-out: Minimum inhibitory concentration (MIC50, μg/ml) VRE
Hi! Just check whether MIC50 is below 0.4 µg/mL. Below gives 1.0, equal or above gives 0.0.

molecule	class-label
Cn1nnc(-c2ccc(-c3ccc(N4C[C@H](C(O)F)OC4=O)cc3F)cn2)n1.O=P(O)(O)O (stereo partly shown)	0.0
CCC(O)[C@@H]1CN(c2ccc(-c3ccc(-c4nnn(C)n4)nc3)c(F)c2)C(=O)O1.O=P(O)(O)O (stereo partly shown)	0.0
CCn1nnc(-c2ccc(-c3ccc(N4C[C@H](C(O)C5CC5)OC4=O)cc3F)cn2)n1.O=P(O)(O)O (stereo partly shown)	0.0
C=Cn1nnc(-c2ccc(-c3ccc(N4C[C@@H](C(O)CC)OC4=O)cc3F)cn2)n1.O=P(O)(O)O (stereo partly shown)	1.0
CC(O)[C@H]1CN(c2ccc(-c3ccc(-c4nnn(C)n4)nc3)c(F)c2)C(=O)O1.O=P(O)(O)O (stereo partly shown)	1.0
